system: T-Rex 293 cell line SC3 cells lacking increased expression of androgen receptor protein; assay: Cellular growth inhibition assay, T-Rex 293 SC3 cells without doxycycline (CellTiter-Glo, 72 hours); assay type: cell-based; conditions: 72 h, T-Rex 293 cell line SC3 cells not exposed to doxycycline (lacking increased androgen receptor expression)
Endpoint: GI50

Fill in reported GI50 for this entry: Cc1sc2c(c1C)C(c1ccc(CNC(=O)NCc3ccc(C(=O)N[C@H]4CC[C@H](Oc5ccc(C#N)c(Cl)c5)CC4)nn3)cc1)=N[C@@H](Cc1ncco1)c1nnc(C)n1-2
> 3000 nM

Fill in reported GI50 for this entry: CC1=NN=C2C1c1sc(C)c(C)c1C(c1ccc(C3CCC4(CC3)CCN(c3ccc(C(=O)N[C@H]5CC[C@H](Oc6ccc(C#N)c(Cl)c6)CC5)nn3)CC4)cc1)=N[C@H]2Cc1ncco1 (stereo partly drawn)
> 3000 nM

Fill in reported GI50 for this entry: Cc1sc2c(c1C)C(c1ccc(C[C@H]3CC[C@@]4(C3)CN(c3ccc(C(=O)N[C@H]5CC[C@H](Oc6ccc(C#N)c(Cl)c6)CC5)nn3)CCO4)cc1)=N[C@@H](Cc1ncco1)c1nnc(C)n1-2
< 500 nM

---

system: T-Rex 293 cell line SC3 cells lacking increased expression of androgen receptor protein; experiment: Cellular growth inhibition assay, T-Rex 293 SC3 cells without doxycycline (CellTiter-Glo, 72 hours); assay type: cell-based; conditions: 72 h, T-Rex 293 cell line SC3 cells not exposed to doxycycline (lacking increased androgen receptor expression)
Endpoint: GI50

Fill in reported GI50 for this entry: Cc1sc2c(c1C)C(c1ccc([C@H]3CCN(C(=O)[C@@H]4CCCN(c5ccc(C(=O)N[C@H]6CC[C@H](Oc7ccc(C#N)c(Cl)c7)CC6)nn5)C4)C3)cc1)=N[C@@H](Cc1ncco1)c1nnc(C)n1-2
< 500 nM

Fill in reported GI50 for this entry: Cc1sc2c(c1C)C(c1ccc(C[C@H]3C[C@]4(CN(c5ccc(C(=O)N[C@H]6CC[C@H](Oc7ccc(C#N)c(Cl)c7)CC6)nn5)CCO4)C3)cc1)=N[C@@H](Cc1ncco1)c1nnc(C)n1-2
< 500 nM

Fill in reported GI50 for this entry: Cc1sc2c(c1C)C(c1ccc(CC(=O)N3CCN(c4ccc(C(=O)N[C@H]5CC[C@H](Oc6ccc(C#N)c(Cl)c6)CC5)nn4)CC3)cc1)=N[C@@H](Cc1ncco1)c1nnc(C)n1-2
> 3000 nM

Fill in reported GI50 for this entry: Cc1sc2c(c1C)C(c1ccc(NCC3CC4(C3)CN(c3ncc(C(=O)N[C@H]5CC[C@H](Oc6ccc(C#N)c(Cl)c6)CC5)cn3)C4)cc1)=NC(Cc1ncco1)c1nnc(C)n1-2 (some centres unmarked)
> 3000 nM

Fill in reported GI50 for this entry: Cc1sc2c(c1C)C(c1ccc(OC[C@H]3C[C@@]4(CCCN(c5ccc(C(=O)N[C@H]6CC[C@H](Oc7ccc(C#N)c(Cl)c7)CC6)nn5)C4)C3)nc1)=N[C@@H](Cc1ncco1)c1nnc(C)n1-2
> 3000 nM

---

system: T-Rex 293 cell line SC3 cells lacking increased expression of androgen receptor protein; experiment: Cellular growth inhibition assay, T-Rex 293 SC3 cells without doxycycline (CellTiter-Glo, 72 hours); format: cell-based; settings: 72 h, T-Rex 293 cell line SC3 cells not exposed to doxycycline (lacking increased androgen receptor expression)
Endpoint: GI50

Fill in reported GI50 for this entry: CCNC(=O)C[C@@H]1N=C(c2cccc(OCCOCCOC3CCN(c4ccc(C(=O)N[C@H]5CC[C@H](Oc6ccc(C#N)c(Cl)c6)CC5)nn4)CC3)c2)c2c(sc(C)c2C)-n2c(C)nnc21
1.5 to 3 µM

Fill in reported GI50 for this entry: Cc1sc2c(c1C)C(c1ccc(OC3CC4(CCN(c5ccc(C(=O)N[C@H]6CC[C@H](Oc7ccc(C#N)c(Cl)c7)CC6)nn5)CC4)C3)cc1)=N/C(=C/c1ncco1)c1nnc(C)n1-2
> 3 µM

Fill in reported GI50 for this entry: Cc1sc2c(c1C)C(c1ccc(OCCC3CCN(c4ccc(C(=O)N[C@H]5CC[C@H](Oc6ccc(C#N)c(Cl)c6)CC5)nn4)CC3)cc1)=NC(Cc1ncco1)c1nnc(C)n1-2 (some centres unmarked)
< 0.5 µM

Fill in reported GI50 for this entry: Cc1sc2c(c1C)C(c1ccc(N3CC4(CC(Cc5ccc(C(=O)N[C@H]6CC[C@H](Oc7ccc(C#N)c(Cl)c7)CC6)nn5)C4)C3)cc1)=NC(C(F)(F)F)c1nnc(C)n1-2 (some centres unmarked)
> 3 µM

Fill in reported GI50 for this entry: Cc1sc2c(c1C)C(c1ccc(N3CCC4(CC3)CCN(c3ccc(C(=O)N[C@H]5CC[C@H](Oc6ccc(C#N)c(Cl)c6)CC5)nn3)C4)cc1)=N[C@H](C)c1nnc(C)n1-2
> 3 µM
